test system: zebrafish; experiment: Toxicity to zebrafish, semi-static method, 96 hours; conditions: 1.5 ppm, 8 h
experimentalReadout: Survival condition (survival rates/%)
A complete answer gives the number followed by the unit.

Take a look at these entries with their results.
COC1CC(OC2C(C)OC(OC3C(C)=CCC4CC(CC5(CCC(C)C(C)O5)O4)OC(=O)C4C=C(C)C(O)C5OCC(=CC=CC3C)C45O)CC2OC)OC(C)C1O (stereo not shown); 100%
CC[C@H](C)C1O[C@]2(C=C[C@@H]1C)C[C@@H]1C[C@@H](C/C=C(\C)[C@@H](O[C@H]3C[C@H](OC)[C@@H](O[C@H]4C[C@H](OC)[C@H](NC)[C@H](C)O4)[C@H](C)O3)[C@@H](C)/C=C/C=C3\CO[C@@H]4[C@H](O)C(C)=C[C@@H](C(=O)O1)[C@]34O)O2.O=C(O)c1ccccc1 (stereo partly shown) [Methylamino avermectin benzoate, reference compound]; 0%
CC[C@H]1O[C@]2(CC[C@@H]1C)C[C@@H]1C[C@@H](C/C=C(\C)[C@@H](O[C@H]3C[C@H](OC)[C@@H](O[C@H]4C[C@H](OC)[C@@H](O)[C@H](C)O4)[C@H](C)O3)[C@@H](C)/C=C/C=C3\CO[C@@H]4[C@H](O)C(C)=C[C@@H](C(=O)O1)[C@]34O)O2; 10%

Please examine the following record next.
Determine from records and report Survival condition (survival rates/%) for CC[C@H](C)[C@H]1O[C@]2(C=C[C@@H]1C)C[C@@H]1C[C@@H](C/C=C(\C)[C@@H](O[C@H]3C[C@H](OC)[C@@H](O[C@H]4C[C@H](OC)[C@@H](O)[C@H](C)O4)[C@H](C)O3)[C@@H](C)/C=C/C=C3\CO[C@@H]4[C@H](O)C(C)=C[C@@H](C(=O)O1)[C@]34O)O2 [Avermectin, reference compound]
0%
